Data provenance is patent US20040006120A1.

Ex Vivo Binding: drug dose required to obtain ½-maximal H3 receptor occupancy in the brain values for the compounds below.
assay.target: H3 receptor occupancy in the brain (Rattus norvegicus)
Construct: H3 receptor occupancy in the brain following intraperitoneal administration; from tissue
Sequence (Q9QYN8 whole entry): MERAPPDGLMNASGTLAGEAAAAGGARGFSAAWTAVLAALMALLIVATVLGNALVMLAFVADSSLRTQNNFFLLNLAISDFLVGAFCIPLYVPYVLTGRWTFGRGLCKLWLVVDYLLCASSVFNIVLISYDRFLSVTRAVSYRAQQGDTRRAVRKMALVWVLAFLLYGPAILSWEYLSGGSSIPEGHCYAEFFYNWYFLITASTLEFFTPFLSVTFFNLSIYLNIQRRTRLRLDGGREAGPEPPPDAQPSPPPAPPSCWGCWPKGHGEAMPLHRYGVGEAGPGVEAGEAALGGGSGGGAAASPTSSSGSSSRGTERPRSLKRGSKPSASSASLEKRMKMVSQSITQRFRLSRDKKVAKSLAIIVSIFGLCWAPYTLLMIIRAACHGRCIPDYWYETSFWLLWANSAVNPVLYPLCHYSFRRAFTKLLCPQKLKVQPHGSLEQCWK
assay.info: Ex vivo binding: H3 receptor occupancy in the brain after intraperitoneal administration
test.parameters: following intraperitoneal administration
Give your result in mg/kg as a bare value.

Record excerpt, results attached:
Return reported Ex Vivo Binding: drug dose required to obtain ½-maximal H3 receptor occupancy in the brain; argument: O=C(N[C@@H]1C[C@H]1c1c[nH]cn1)OCCC1CCCCC1
31

Return reported Ex Vivo Binding: drug dose required to obtain ½-maximal H3 receptor occupancy in the brain; argument: CC(C)(C)CCC#C[C@@H]1C[C@H]1c1c[nH]cn1
0.08

Return reported Ex Vivo Binding: drug dose required to obtain ½-maximal H3 receptor occupancy in the brain; argument: O=C(CCCCC1CCCCC1)N1CCC(c2c[nH]cn2)CC1
8.0

Return reported Ex Vivo Binding: drug dose required to obtain ½-maximal H3 receptor occupancy in the brain; argument: CC(C)(C)CCOC(=O)N[C@@H]1C[C@H]1c1c[nH]cn1
3.7

Return reported Ex Vivo Binding: drug dose required to obtain ½-maximal H3 receptor occupancy in the brain; argument: C(=C/CCC1CCCCC1)/CCc1c[nH]cn1
0.92

More entries:
Return reported Ex Vivo Binding: drug dose required to obtain ½-maximal H3 receptor occupancy in the brain; argument: O=C(N[C@@H]1C[C@H]1c1c[nH]cn1)OCc1c(Cl)cccc1Cl
2.9

Return reported Ex Vivo Binding: drug dose required to obtain ½-maximal H3 receptor occupancy in the brain; argument: O=C(N[C@@H]1C[C@H]1c1c[nH]cn1)OCC1CCCCC1
2.6
